Tested on: JEG-3
assay_protocol: Primary qHTS to identify gynecologic anti-cancer compounds using libraries of approved drugs and bioactive compounds (AID 1345084); further: on the % scale 0 is the no-effect control and ±100 the full control effect; nearly all actives have a fitted effect of over 55% in size
measurement_conditions: Gynecologic cancer cell panel viability, ATPlite luminescence, 48 h; series mostly up to 57.5 µM
Records with an inconclusive call do not appear. Activity calls are given as the source filed them. The call rests on the fitted dose curve; in most records, active means well fitted cell-killing curve with a large enough effect; inconclusive means small, poorly fitted or top-dose-only effect, or effect the other way; inactive means flat fitted curve, though single readings scatter.

| compound | study_system | activity change, negative = cytotoxicity |
| --- | --- | --- |
| NCC1(CC(=O)O)CCCCC1 | JEG-3 | inactive |
| C[C@]12CC[C@H]3[C@@H](CCC4=CC(=O)CC[C@@H]43)[C@@H]1CC[C@@H]2OC(=O)CCc1ccccc1 | JEG-3 | inactive |
| O=c1[nH]c2ccccc2n1C1CCN(CCCC(c2ccc(F)cc2)c2ccc(F)cc2)CC1 | JEG-3 | inactive |
| C#CCN(C)[C@H](C)Cc1ccccc1 | JEG-3 | inactive |
| Clc1cccc(N2CCNCC2)c1 | JEG-3 | inactive |
| c1ccc2c(c1)Nc1ccccc1S2 | JEG-3 | inactive |
| O=C(NC(O)C(Cl)(Cl)Cl)NC(O)C(Cl)(Cl)Cl (stereo not drawn) | JEG-3 | inactive |
| Cc1ccc(S(=O)(=O)N[C@@H](CCCCN)C(=O)CCl)cc1 | JEG-3 | inactive |
| Cc1ccc(-c2nc3ccc(C)cn3c2CC(=O)N(C)C)cc1 | JEG-3 | inactive |
| CC1OC(C)OC(C)O1 (stereo not drawn) | JEG-3 | inactive |
| OCCOc1ccccc1 | JEG-3 | inactive |
| CC(C)(C)CC(C)(C)c1ccc(O)cc1 | JEG-3 | inactive |
| N[C@@H](Cc1ccc(Oc2cc(I)c(O)c(I)c2)c(I)c1)C(=O)O | JEG-3 | inactive |
| CC[N+]1(C)CCCC(OC(=O)C(O)(c2ccccc2)c2ccccc2)C1 (stereo not drawn) | JEG-3 | inactive |
| O=c1[nH]c2ccccc2n1CCCN1CCC(n2c(=O)[nH]c3cc(Cl)ccc32)CC1 | JEG-3 | inactive |
| CC1NCCOC1c1ccccc1 (stereo not drawn) | JEG-3 | inactive |
| C#CCOC(C(=O)OCCN(C)C)(c1ccccc1)c1ccccc1 | JEG-3 | inactive |
| CN1C(=S)CN=C(c2ccccc2)c2cc(Cl)ccc21 | JEG-3 | inactive |
| Fc1ccc(C(OCCN2CCN(CCCc3ccccc3)CC2)c2ccc(F)cc2)cc1 | JEG-3 | inactive |
| CC[C@@H](CO)NC(=O)[C@@H]1C=C2c3cccc4c3c(cn4C)C[C@H]2N(C)C1 | JEG-3 | inactive |
| CCC(C(N)=O)N1CCCC1=O (stereo not drawn) | JEG-3 | inactive |
| CN(C)CCc1ccc(O)cc1 | JEG-3 | inactive |
| N[C@@H](Cc1ccc(N(CCCl)CCCl)cc1)C(=O)O | JEG-3 | inactive |
| COc1ccccc1N1CCNCC1 | JEG-3 | inactive |
| Cc1cccc(C)c1NC1=NCCCS1 | JEG-3 | inactive |
| CCCC1CCCCN1 (stereo not drawn) | JEG-3 | inactive |
| Oc1cc(Cl)ccc1Oc1ccc(Cl)cc1Cl | JEG-3 | inactive |
| N[C@@H]1C[C@H]1c1ccccc1 | JEG-3 | inactive |
| CO[C@]12CC[C@@]3(C[C@@H]1[C@](C)(O)C(C)(C)C)[C@@H]1Cc4ccc(O)c5c4[C@@]3(CCN1CC1CC1)[C@H]2O5 | JEG-3 | inactive |
| CN1CCN(C(=O)O[C@H]2c3nccnc3C(=O)N2c2ccc(Cl)cn2)CC1 | JEG-3 | inactive |
| CCCC(C)(COC(N)=O)COC(=O)NC(C)C (stereo not drawn) | JEG-3 | inactive |
| COC[C@@H](NC(C)=O)C(=O)NCc1ccccc1 | JEG-3 | inactive |
| NCC(CC(=O)O)c1ccc(Cl)cc1 (stereo not drawn) | JEG-3 | -6.96% [at 0.462 µM] (inactive) |
| C=C1CC[C@@]2(O)[C@H]3Cc4ccc(O)c5c4[C@@]2(CCN3CC2CC2)[C@H]1O5 | JEG-3 | inactive |
| O=[N+]([O-])c1cc([As](=O)(O)O)ccc1O | JEG-3 | inactive |
| Clc1ccc(COC(Cn2ccnc2)c2ccc(Cl)cc2Cl)cc1 (stereo not drawn) | JEG-3 | inactive |
| CCN(C(C)=O)c1cccc(-c2ccnc3c(C#N)cnn23)c1 | JEG-3 | inactive |
| CC(C)=CCOc1c2occc2cc2ccc(=O)oc12 | JEG-3 | inactive |
| Clc1ccc(CCC(Cn2ccnc2)Sc2c(Cl)cccc2Cl)cc1 (stereo not drawn) | JEG-3 | inactive |
| CN(C)[C@@H]1C(=O)C(C(N)=O)=C(O)[C@@]2(O)C(=O)C3=C(O)c4c(O)cccc4[C@@](C)(O)[C@H]3C[C@@H]12 | JEG-3 | inactive |
| CCC1(C2=NCCN2)Cc2ccccc2O1 (stereo not drawn) | JEG-3 | inactive |
| COc1ccc2c(c1OC)CN1CCc3cc4c(cc3C1C2)OCO4 (stereo not drawn) | JEG-3 | inactive |
| CC(C)(C)NCC(O)c1cc(Cl)c(N)c(Cl)c1 (stereo not drawn) | JEG-3 | inactive |
| COc1ccc(C(=O)c2c(C)n(CCN3CCOCC3)c3ccccc23)cc1 | JEG-3 | inactive |
| CC(=O)[C@H]1CC[C@H]2[C@@H]3CC[C@H]4C[C@](C)(O)CC[C@]4(C)[C@H]3CC[C@]12C | JEG-3 | inactive |
| COc1ccc(C(CN(C)C)C2(O)CCCCC2)cc1 (stereo not drawn) | JEG-3 | inactive |
| CCC(COC(=O)c1cc(OC)c(OC)c(OC)c1)(c1ccccc1)N(C)C (stereo not drawn) | JEG-3 | inactive |
| CN1C[C@H](CNC(=O)OCc2ccccc2)C[C@@H]2c3cccc4c3c(cn4C)C[C@H]21 | JEG-3 | inactive |
